ASSAY_PROTOCOL: NCI Yeast Anticancer Drug Screen. Data for the rad50 strain (AID 155);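 note: 0% = growth of vehicle-only cultures of the same strain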
PARTICULARS: S. cerevisiae rad50 strain growth inhibition; at 50.0 µM; hits give high values
About 79,000 compounds went through this panel and 15% of them were active in at least one assay; those are over-represented in the sample as a whole.
Reported growth inhibition values for the following compounds.
PROPERTY_NAME: growth inhibition (%)

>  <COMPOUND>
CC(=O)OCC1OC(n2ccc(NC(=O)Nc3ccn(C4OC(COC(C)=O)C(OC(C)=O)C4OC(C)=O)c(=O)n3)nc2=O)C(OC(C)=O)C1OC(C)=O (stereo not given)

>  <VALUE>
-2.25

$$$$
>  <COMPOUND>
CCOS(=O)(=O)CC(C)C(C)C (stereo not given)

>  <VALUE>
4.75

$$$$
>  <COMPOUND>
COC(=O)c1c([N+](=O)[O-])ncn1C1CC(OC(C)=O)C(COC(C)=O)O1 (stereo not given)

>  <VALUE>
15.2

$$$$
>  <COMPOUND>
O=C(Nc1ccc(Cl)cc1Cl)C(=O)C(C(=O)c1ccc2ccccc2c1)C1OC(=O)c2ccccc21 (stereo not given)

>  <VALUE>
13.4

$$$$
>  <COMPOUND>
CCCCNCCCNCCCC

>  <VALUE>
4.95

$$$$
>  <COMPOUND>
COc1ccc(S(=O)c2coc3ccccc3c2=O)cc1 (stereo not given)

>  <VALUE>
32.4

$$$$
>  <COMPOUND>
C=C1C(=O)OC2/C=C(\C)C(O)C/C=C(/C)C(OC(=O)/C(C)=C\C)C(O)C12 (stereo not given)

>  <VALUE>
13.9

$$$$
>  <COMPOUND>
O=C(COc1cc(Cl)c(Cl)cc1Cl)Nc1ccc(N=Nc2ccccc2)cc1

>  <VALUE>
2

$$$$
>  <COMPOUND>
C#CC(NC(C)(C)CC(C)(C)C)C(C)C (stereo not given)

>  <VALUE>
31.1

$$$$
>  <COMPOUND>
CCCCc1c2c(nc3c1CCc1cc4cc5c(nc4nc1-3)-c1nc3c(c(CCCC)c1CC5)CCCC3)CCCC2

>  <VALUE>
7.5

$$$$
>  <COMPOUND>
CC1=CC(=O)c2c(C=O)c(O)c(O)c(C(C)C)c2C1=O

>  <VALUE>
91

$$$$
>  <COMPOUND>
C[C@H]1S[C@H](c2c(F)cccc2F)n2c1nc1ccccc12

>  <VALUE>
9.5

$$$$
>  <COMPOUND>
CCC(SC)C(=O)c1ccccc1 (stereo not given)

>  <VALUE>
-7.55

$$$$
>  <COMPOUND>
Cc1ccc([N+](=O)[O-])cc1NC(=O)C(=O)Cc1occc(=O)c1O

>  <VALUE>
-12.6

$$$$
>  <COMPOUND>
O=C1COc2cc(O)cc(O)c21

>  <VALUE>
9.8

$$$$

###

ASSAY_PROTOCOL: NCI Yeast Anticancer Drug Screen. Data for the sgs1 mgt1 strain (AID 161);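 note: 0% = growth of cultures given vehicle only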
PARTICULARS: S. cerevisiae sgs1 mgt1 strain, at 50.0 µM, hits give high values
The panel holds about 79,000 compounds, 15% with a hit somewhere; the sample as a whole holds those more often.
PROPERTY_NAME: growth inhibition (%)

>  <COMPOUND>
COc1cc(-c2oc3ccccc3c(=O)c2O)cc(OC)c1OC

>  <UNIT_DESCRIPTOR>
%

>  <VALUE>
-16.3

$$$$
>  <COMPOUND>
c1coc(C2OCCO2)c1

>  <UNIT_DESCRIPTOR>
%

>  <VALUE>
-26.6

$$$$
>  <COMPOUND>
CNC(=O)N(c1ccccc1)C1CCCCC1

>  <UNIT_DESCRIPTOR>
%

>  <VALUE>
-2.5

$$$$
>  <COMPOUND>
CCSC(=S)S

>  <UNIT_DESCRIPTOR>
%

>  <VALUE>
-12.2

$$$$
>  <COMPOUND>
CC1CCc2ccccc2N1C(=O)c1cccc([N+](=O)[O-])c1C(=O)O (stereo not given)

>  <UNIT_DESCRIPTOR>
%

>  <VALUE>
27.4

$$$$

###

ASSAY_PROTOCOL: NCI Yeast Anticancer Drug Screen. Data for the mec2-1 strain (AID 157)
PARTICULARS: S. cerevisiae mec2-1 strain, at 50.0 µM, hits give high values
This is part of a sample that, as a whole, favours compounds with a hit. Of some 79,000 tested, about 15% had one in any assay.
Reported growth inhibition values for the following compounds.

>  <COMPOUND>
Nc1ccc(C(=O)c2ccccc2)cc1

>  <growth inhibition (%)>
13.9

$$$$
>  <COMPOUND>
COc1nnc(-c2ccccc2)c(-c2ccccc2)n1

>  <growth inhibition (%)>
20.3

$$$$
>  <COMPOUND>
NC(=O)n1ccc(CC(O)(C(F)(F)F)C(F)(F)F)n1

>  <growth inhibition (%)>
44

$$$$
>  <COMPOUND>
Cc1ccc2nc(CC(=O)c3ccc4ccccc4c3)c(=O)[nH]c2c1

>  <growth inhibition (%)>
9.65

$$$$
>  <COMPOUND>
Nc1ncccc1C(=O)O

>  <growth inhibition (%)>
-1.05

$$$$
>  <COMPOUND>
C/C=C1\CN2CCc3c([nH]c4ccccc34)C2CC1CCO (stereo unspecified)

>  <growth inhibition (%)>
-10.9

$$$$

###

ASSAY_PROTOCOL: NCI Yeast Anticancer Drug Screen. Data for the rad50 strain (AID 155);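 note: 0% = growth of vehicle-only cultures of the same strain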
PARTICULARS: S. cerevisiae rad50 strain growth inhibition; at 50.0 µM; hits give high values
This is part of a sample that, as a whole, favours compounds with a hit. Of some 79,000 tested, about 15% had one in any assay.
Reported growth inhibition values for the following compounds.

>  <COMPOUND>
CCCCOC(=O)c1ccc(NC(=O)Nc2ccc(SC)cc2)cc1

>  <UNIT_DESCRIPTOR>
%

>  <growth inhibition>
-4.05

$$$$
>  <COMPOUND>
CCOC(=O)CNc1nnnn1C1OC(CO)C(O)C1O (stereo not drawn)

>  <UNIT_DESCRIPTOR>
%

>  <growth inhibition>
-2.05

$$$$
>  <COMPOUND>
CCOC(=O)c1c(Br)c2c3ccccc3c3ccccc3n2c1C

>  <UNIT_DESCRIPTOR>
%

>  <growth inhibition>
1.7

$$$$
>  <COMPOUND>
CCOC(=O)c1ccc(CCCN)cc1

>  <UNIT_DESCRIPTOR>
%

>  <growth inhibition>
-17.8

$$$$
>  <COMPOUND>
O=c1c(Br)c(-c2ccccc2)[nH]c2ccccc12

>  <UNIT_DESCRIPTOR>
%

>  <growth inhibition>
2.95

$$$$
>  <COMPOUND>
Cc1cc(C)c(C#N)c(SC(C(=O)Nc2cc(C(F)(F)F)ccc2Cl)c2ccccc2)n1 (stereo not drawn)

>  <UNIT_DESCRIPTOR>
%

>  <growth inhibition>
2.35

$$$$
>  <COMPOUND>
CSc1ccc(Nc2ncnc(N)n2)cc1

>  <UNIT_DESCRIPTOR>
%

>  <growth inhibition>
19.9

$$$$
>  <COMPOUND>
O=C(NCCN1CCOCC1)c1ccc(C(=O)NCCN2CCOCC2)cc1

>  <UNIT_DESCRIPTOR>
%

>  <growth inhibition>
35

$$$$
>  <COMPOUND>
CC(=O)CC(=O)Nc1cccc(C)c1

>  <UNIT_DESCRIPTOR>
%

>  <growth inhibition>
-13.9

$$$$
>  <COMPOUND>
CC(=O)CC(=O)Nc1ccc(Cl)cc1

>  <UNIT_DESCRIPTOR>
%

>  <growth inhibition>
-2.75

$$$$
>  <COMPOUND>
CN(C)S(=O)(=O)N1CCCc2ccccc21

>  <UNIT_DESCRIPTOR>
%

>  <growth inhibition>
3.4

$$$$
>  <COMPOUND>
O=C/C=C/N=c1ccn(O)cc1

>  <UNIT_DESCRIPTOR>
%

>  <growth inhibition>
8.65

$$$$
>  <COMPOUND>
CC1CC(c2ccccc2)Nc2nc3ccccc3n21 (stereo not drawn)

>  <UNIT_DESCRIPTOR>
%

>  <growth inhibition>
5.65

$$$$
>  <COMPOUND>
Nc1ncc([N+](=O)[O-])c(N)n1

>  <UNIT_DESCRIPTOR>
%

>  <growth inhibition>
2.75

$$$$
>  <COMPOUND>
C/C(=N/C(=O)NN)c1ccc(Cl)cc1

>  <UNIT_DESCRIPTOR>
%

>  <growth inhibition>
34.2

$$$$
>  <COMPOUND>
Cc1onc(-c2c(F)cccc2Cl)c1C(=O)OCc1c(F)cccc1Cl

>  <UNIT_DESCRIPTOR>
%

>  <growth inhibition>
6.8

$$$$
>  <COMPOUND>
C=CNc1cccc2ccccc12

>  <UNIT_DESCRIPTOR>
%

>  <growth inhibition>
13.8

$$$$
>  <COMPOUND>
CCOC(=O)C1(C(=O)OCC)CSC1

>  <UNIT_DESCRIPTOR>
%

>  <growth inhibition>
-16.6

$$$$

Data credit: PubChem BioAssay (NCI)
